assay: chemical genetic growth profiling, strain panel (AID 1159580);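 further: tested at 20 µM; growth read once vehicle control cultures reached saturation at 30 °C; 1 = growth at the plate median or of vehicle wells; lower values mean less growth of the strain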; details: S. cerevisiae deletion strains, growth OD, locus YCL061C, strain MRC1
The campaign covered roughly 5,500 compounds. About 2,000 (36%) were called active. Not shown: some 18% with an inconclusive outcome. No stated cut-off is given here; in the data, active means normalized growth mostly below about 0.91 (no sharp cut-off); inconclusive means no clear call, values can overlap the other calls; inactive means mostly above about 0.92. Some of the results follow.
Result category, one only: active, inactive

>>> assigned_class("CC(=O)O[C@H]1C[C@@]2(C)[C@H](c3ccoc3)OC(=O)[C@H]3O[C@]32[C@@]2(C)C1[C@]1(C)C(C[C@H]2OC(C)=O)C(C)(C)[C@H](OC(C)=O)C[C@@H]1OC(C)=O (stereo partly drawn)")
"inactive"
>>> assigned_class("CC(=O)C1COc2ccc(C)cc2C1=O (stereo not drawn)")
"inactive"
>>> assigned_class("Clc1ccc(-c2csc(-c3ccno3)n2)s1")
"inactive"
>>> assigned_class("COc1ccc(-c2cc(=O)c3cc(OC)ccc3o2)cc1")
"inactive"
>>> assigned_class("O=c1c(-c2cc(O)c(O)c(O)c2)coc2cc(O)c(O)c(O)c12")
"inactive"
>>> assigned_class("O=C1CN2Cc3c(ccc(Cl)c3Cl)N=C2N1")
"inactive"
>>> assigned_class("O=c1cc(-c2ccc(O)cc2)oc2ccc(O)cc12")
"inactive"
>>> assigned_class("CSC(=NCc1cccnc1)NC#N")
"inactive"

Which result was noted for this compound in the test: `C[N+]1(CCCCC[N+]2(C)CCCC2)CCCC1`
inactive

One more compound: `Cc1cc(Br)c(OCC(=O)NN)c2c1CCC2`
inactive

One more compound: `O=c1cc(-c2ccc(O)c(O)c2)oc2ccccc12`
inactive

One more compound: `COc1ccc(-c2cc(=O)c3c(OC)c(OC)c(OC)c(OC)c3o2)cc1`
active

One more compound: `CC(C)=CCc1c2c(c(O)c3c(=O)c(O)c(-c4ccccc4)oc13)C=CC(C)(C)O2`
active

One more compound: `C[n+]1cc2c3c(ccc2c2ccc4cc5c(cc4c21)OCO5)OCO3`
active

---

experiment: chemical genetic growth profiling, strain panel (AID 1159580);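 further: tested at 20 µM; growth read once vehicle control cultures reached saturation at 30 °C; 1 = growth at the plate median or of vehicle wells; lower values mean less growth of the strain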; settings: S. cerevisiae deletion strains, growth OD, locus YEL037C, strain rad23, hits give low values
About 2,000 (36%) of roughly 5,500 compounds were called active. Another 18% or so got no clear call; they are omitted. The list shows a part of the results.
Reported normalized growth is given for each of the following molecules.
// no unit, no text: just the number

Completed entries (count: 6):
>>> measured_result("CC1(C)O[C@@H]2CC3C4C[C@H](F)C5=CC(=O)C=CC5(C)C4C(O)CC3(C)[C@]2(C(=O)CO)O1 (stereo partly specified)")
0.979
>>> measured_result("C[N+]1(CCCCC[N+]2(C)CCCC2)CCCC1")
0.994
>>> measured_result("CC(C)Oc1ccc2c(=O)cc(-c3ccccc3)oc2c1")
0.953
>>> measured_result("CCn1cc(C(=O)O)c(=O)c2cc(F)c(N3CCNCC3)cc21")
0.976
>>> measured_result("COCCOC(=O)C1=C(C)NC(C)=C(C(=O)OC(C)C)C1c1cccc([N+](=O)[O-])c1 (stereo unspecified)")
1.01
>>> measured_result("CC(=O)OCC(=O)[C@@]1(O)CCC2C3CC[C@@H]4C[C@H](O)CC[C@]4(C)C3C(=O)C[C@@]21C (stereo partly specified)")
1

Would you kindly share the measured normalized growth for `COC(=O)C1=C(C)NC(C)=C(C(=O)OC)C1c1ccccc1[N+](=O)[O-]` ?
0.934

One more molecule: `COc1ccc(C(=O)/C=C/c2ccccc2)cc1`
0.982

One more molecule: CC(C(=O)O)[C@H]1CCC2C3CC=C4C[C@@H](O)CC[C@]4(C)C3CC[C@@]21C (stereo partly specified)
1.03

One more molecule: FC(F)(F)C(Cl)Br (stereo unspecified)
0.997

One more molecule: `S=c1ccss1`
0.984

One more molecule: `CC(=O)O.CC(=O)O.[Cd]`
0.786

One more molecule: `N[C@@H]1CONC1=O`
0.982

One more molecule: `COc1c(O)cc2c(-c3ccccc3)cc(=O)oc2c1OC`
1
